The origin of these recorded values is patent US20080021217A1.

# TARGET: recombinant N-terminal GST-tagged human Rho kinase 2 (ROCK2, amino acids 1-552) (Homo sapiens, UniProt O75116)
# Construct: ROCK2, amino acids 1-552, Invitrogen Inc., cat #PV3759; GST (N); purchased Invitrogen Inc. PV3759
# Sequence (O75116 1-552): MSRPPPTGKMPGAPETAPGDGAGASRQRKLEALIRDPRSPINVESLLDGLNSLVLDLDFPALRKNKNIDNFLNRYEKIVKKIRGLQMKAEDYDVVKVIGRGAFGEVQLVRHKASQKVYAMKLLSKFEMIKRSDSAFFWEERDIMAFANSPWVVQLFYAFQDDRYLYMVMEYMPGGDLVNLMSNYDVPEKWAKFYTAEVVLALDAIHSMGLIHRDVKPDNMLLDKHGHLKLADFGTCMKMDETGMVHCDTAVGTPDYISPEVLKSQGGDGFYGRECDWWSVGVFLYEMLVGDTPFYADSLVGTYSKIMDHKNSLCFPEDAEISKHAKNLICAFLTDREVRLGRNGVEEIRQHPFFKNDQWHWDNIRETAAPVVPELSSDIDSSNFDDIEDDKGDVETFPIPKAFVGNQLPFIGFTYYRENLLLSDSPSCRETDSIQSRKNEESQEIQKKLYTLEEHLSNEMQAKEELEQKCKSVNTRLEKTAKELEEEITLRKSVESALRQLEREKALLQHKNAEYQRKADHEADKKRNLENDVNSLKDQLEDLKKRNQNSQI
# METHOD SUMMARY: In vitro Rho kinase assay (luciferase-based ATP consumption), ROCK2
# Format: biochemical
QUANTITY KIND: IC50

COc1cccc(C(=O)NCc2nc(-c3ccncc3)n[nH]2)c1	> 5 µM
COC(=O)c1ccc(C(=O)NCc2nc(-c3ccncc3)n[nH]2)cc1	< 5 µM
CC(C)(C)OC(=O)NCC[C@H](NC(=O)c1ccc(O)cc1O)c1nc(-c2ccncc2)n[nH]1	< 5 µM

As a next step, examine the molecule that follows.
Recorded IC50 of c1ccc(COc2ccc(CNCc3nc(-c4ccncc4)n[nH]3)cc2)cc1 , please.
> 5 µM

* * *

Listed below: pIC50 values for each entry.
# TARGET: recombinant N-terminal GST-tagged human Rho kinase 1 (ROCK1, amino acids 1-535) (Homo sapiens, UniProt Q13464)
# Construct: ROCK1, amino acids 1-535, Invitrogen Inc., cat. #PV-3691; GST (N)
# Sequence (Q13464 1-535): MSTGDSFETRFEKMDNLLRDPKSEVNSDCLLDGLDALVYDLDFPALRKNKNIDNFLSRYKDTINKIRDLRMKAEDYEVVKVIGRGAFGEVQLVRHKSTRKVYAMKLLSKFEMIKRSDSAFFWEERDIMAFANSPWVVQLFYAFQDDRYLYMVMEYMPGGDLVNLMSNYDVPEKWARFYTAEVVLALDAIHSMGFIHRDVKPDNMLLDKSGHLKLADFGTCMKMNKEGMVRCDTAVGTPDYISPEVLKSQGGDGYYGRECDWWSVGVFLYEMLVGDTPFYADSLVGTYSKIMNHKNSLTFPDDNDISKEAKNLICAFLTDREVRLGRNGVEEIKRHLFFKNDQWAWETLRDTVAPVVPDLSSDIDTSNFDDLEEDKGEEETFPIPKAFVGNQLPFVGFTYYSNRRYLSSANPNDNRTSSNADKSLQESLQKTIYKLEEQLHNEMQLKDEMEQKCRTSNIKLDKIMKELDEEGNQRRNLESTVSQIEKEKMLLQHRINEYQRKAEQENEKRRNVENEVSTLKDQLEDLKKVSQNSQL
# METHOD SUMMARY: In vitro Rho kinase assay (luciferase-based ATP consumption), ROCK1
pIC50: −log10 of the molar value.

Consider the following illustrative entries.
O=C(NCc1nc(-c2ccncc2)n[nH]1)c1ccc(O)cc1O [Example 15]	> 5.30
Cc1ccc(C(=O)NCc2nc(-c3ccncc3)n[nH]2)c(O)c1 [Example 27]	> 5.30
c1ccc2c(NCc3nc(-c4ccncc4)n[nH]3)n[nH]c2c1 [Example 59]	< 5.30

Which value of pIC50 has been reported for CS(=O)(=O)Nc1ccc(C(=O)NCc2nc(-c3ccncc3)n[nH]2)cc1 [Example 44] in the records?
< 5.30

I would be grateful if you could share the reported pIC50 for O=C(NCc1ncc(-c2ccncc2)s1)c1cccs1 [Example 1] .
< 5.30

Suppose we examine the molecule CS(=O)(=O)Nc1cccc(C(=O)NCc2nc(-c3c[nH]c4ncccc34)cs2)c1 [Example 73] ; what pIC50 value has been reported?
> 5.30

Name the reported pIC50 value associated with the molecule O=C(NCc1nc(-c2ccncc2)c[nH]1)c1ccc(O)cc1O [Example 6]
> 5.30

Looking for the measured pIC50 of O=C(O)c1ccc(C(=O)NCc2nc(-c3ccncc3)n[nH]2)cc1 [Example 31] , can you help?
< 5.30

Fill blank: measured pIC50 of the molecule O=C(NCc1nc(-c2ccncc2)n[nH]1)c1ccc(O)cc1 [Example 28] is ____.
> 5.30

Fill blank: measured pIC50 of the molecule COC(=O)c1ccc(C(=O)NCc2nc(-c3ccncc3)n[nH]2)cc1 [Example 30] is ____.
> 5.30

Give its pIC50 value. Item: c1ccc2c(NCc3nc(-c4ccncc4)n[nH]3)ncnc2c1 [Example 53]
< 5.30

Using the record for CC(C)(C)C(=O)Oc1ccc(C(=O)NCc2nc(-c3ccncc3)n[nH]2)c(OC(=O)C(C)(C)C)c1 [Example 37] , report its pIC50.
< 5.30

Requested read-out: pIC50. Entry: O=C(NCc1nc(-c2ccncc2)n[nH]1)c1ccc(CO)cc1 [Example 51]
> 5.30

Item CC(NC(=O)c1cccs1)c1nc(-c2ccncc2)n[nH]1 (stereo not shown) [Example 65] has what recorded pIC50?
> 5.30

What does the record list as pIC50 for COc1ccc(C(=O)NCc2nc(-c3ccncc3)n[nH]2)c(O)c1 [Example 24] ?
> 5.30

GET /values?readout=pIC50&item= COc1ccc(C(=O)NCc2nc(-c3ccncc3)n[nH]2)cc1 [Example 19]
> 5.30

// returns reported pIC50 for input O=C(NCc1nnc(-c2ccnc3[nH]ccc23)o1)c1ccc(O)cc1O [Example 76]
> 5.30

Dear colleague, I am looking for the recorded pIC50 of the following molecule: Cc1ccsc1C(=O)NCc1nc(-c2ccncc2)n[nH]1 [Example 47]
> 5.30

Quick one: pIC50 for CN(Cc1nc(-c2ccncc2)n[nH]1)C(=O)c1ccc(O)cc1O [Example 58] ?
< 5.30

I have this molecule here, O=C(NCc1nc(-c2ccncc2)co1)c1ccc(O)cc1O [Example 8] , and I need its recorded pIC50.
> 5.30

Consider the molecule O=C(NCc1nc(-c2ccncc2)n[nH]1)c1cccc(Cl)c1O [Example 26] and give its measured pIC50.
> 5.30

pIC50 lookup needed for CC(C)c1cccc(C(=O)NCc2nc(-c3ccncc3)n[nH]2)c1O [Example 41] , thanks.
> 5.30
